Listed molecules paired with reported pIC50
systemUnderTest: glutaminase (GAC) (Homo sapiens)
Sequence (O94925 55-598 isoform O94925-3 limits assumed): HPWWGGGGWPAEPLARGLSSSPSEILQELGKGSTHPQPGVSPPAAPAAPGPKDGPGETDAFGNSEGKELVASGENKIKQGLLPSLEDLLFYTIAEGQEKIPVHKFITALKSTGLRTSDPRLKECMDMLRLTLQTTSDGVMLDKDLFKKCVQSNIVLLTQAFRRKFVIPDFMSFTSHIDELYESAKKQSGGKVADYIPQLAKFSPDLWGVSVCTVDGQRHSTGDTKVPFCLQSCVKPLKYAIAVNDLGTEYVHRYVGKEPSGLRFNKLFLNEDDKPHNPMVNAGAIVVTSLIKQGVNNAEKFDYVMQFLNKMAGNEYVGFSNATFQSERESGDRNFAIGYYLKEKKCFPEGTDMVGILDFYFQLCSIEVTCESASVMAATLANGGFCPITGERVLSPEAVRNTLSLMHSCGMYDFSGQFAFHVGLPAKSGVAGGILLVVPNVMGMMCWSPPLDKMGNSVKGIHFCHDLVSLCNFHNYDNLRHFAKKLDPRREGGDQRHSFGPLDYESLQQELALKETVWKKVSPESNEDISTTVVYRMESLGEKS
pIC50: −log10 of the molar value.

molecule: CCCC(=O)Nc1ccc([C@@H]2CCC[C@H](c3ccc(NC(=O)CCC)nn3)C2)nn1
pIC50: > 7.00

molecule: O=C(Cc1ccc(OC(F)(F)F)cc1)Nc1ccc([C@H]2CCC[C@H](c3ccc(NC(=O)Cc4ccc(OC(F)(F)F)cc4)nn3)C2)nn1 (racemic)
pIC50: 5.00 to 5.70

molecule: O=C(Cc1ccccn1)Nc1ccc([C@@H]2CCC[C@H](c3ccc(NC(=O)Cc4ccccn4)nn3)C2)nn1
pIC50: > 7.00

query: Any idea what pIC50 came out for CC(=O)Nc1ccc([C@H]2CCC[C@H](c3ccc(NC(C)=O)nn3)C2)nn1 (racemic) on glutaminase (GAC) (Homo sapiens)?
result: 5.00 to 5.70

query: Any idea what pIC50 came out for O=C(Cc1ccccn1)Nc1ccc(C2CCC(c3ccc(NC(=O)Cc4ccccn4)nn3)C2)nn1 (stereo not drawn) on glutaminase (GAC) (Homo sapiens)?
result: > 7.00

query: Any idea what pIC50 came out for "CC(C)C(=O)Nc1ccc([C@@H]2CCC[C@H](c3ccc(NC(=O)C(C)C)nn3)C2)nn1" on glutaminase (GAC) (Homo sapiens)?
result: 6.30 to 7.00
